assay-notes: Redox reaction of the copper(II) complexes with GSH (UV–vis, anoxic)
Format: physicochemical
experimental-conditions: pH 7.4 (50 mM HEPES); ccomplex = 25 μM; cGSH = 1.25 mM; pure water; 25 °C
recorded-endpoint: kobs, redox reaction with GSH (min^–1)
Hi! Could you send only the number? It should be in min^–1, unit omitted.

Answered examples (3):
{"columns": ["compound", "result-value"],
 "data": [
  ["Cc1cc(NC(=NN=Cc2cccc(CN3CCOCC3)n2)[S][Cu][Cl])cc(C)c1O [complex 6, [Cu(HL^6)Cl]·H2O]", 0.165],
  ["Cc1cc(NC(=NN=Cc2ncccc2CN2CCOCC2)[S][Cu][Cl])cc(C)c1O [complex 3, [Cu(HL^3)Cl]·H2O]", 0.059],
  ["Cc1cc(NC(=NN=Cc2cc(CN3CCOCC3)ccn2)[S][Cu][Cl])cc(C)c1O [complex 4, [Cu(HL^4)Cl]·1.5H2O]", 0.079]
]}

// query Look up and report measured kobs, redox reaction with GSH for this entry: Cc1cc(NC(=NN=Cc2ccc(CN3CCOCC3)cn2)[S][Cu][Cl])cc(C)c1O [complex 5, [Cu(HL^5)Cl]·2.5H2O]
// result 0.058

###

assay-notes: Cyclic voltammetry of copper(II) complexes in DMSO/n-Bu4NPF6
Type: physicochemical
experimental-conditions: first anodic peak potential vs Fc+/Fc, 100 mV s^–1
recorded-endpoint: Epa^1

Below, each entry is followed by its recorded Epa^1 result.
{"columns": ["compound", "Epa^1"],
 "data": [
  ["Cc1cc(NC(=NN=Cc2cccc(CN3CCOCC3)n2)[S][Cu][Cl])cc(C)c1O [complex 6, [Cu(HL^6)Cl]·H2O]", "+0.26 V"],
  ["Cc1cc(NC(=NN=Cc2ccc(CN3CCOCC3)cn2)[S][Cu][Cl])cc(C)c1O [complex 5, [Cu(HL^5)Cl]·2.5H2O]", "+0.29 V"],
  ["Cc1cc(NC(=NN=Cc2cc(CN3CCOCC3)ccn2)[S][Cu][Cl])cc(C)c1O [complex 4, [Cu(HL^4)Cl]·1.5H2O]", "+0.31 V"]
]}

// query For the compound Cc1cc(NC(=NN=Cc2ncccc2CN2CCOCC2)[S][Cu][Cl])cc(C)c1O [complex 3, [Cu(HL^3)Cl]·H2O] , give its reported Epa^1.
// result +0.27 V

###

Below, each entry is listed alongside its reported SR, selectivity ratio IC50 (MES-SA)/IC50 (MES-SA/Dx5).
System: MES-SA/Dx5 cells
assay-notes: Fluorescent protein-based cytotoxicity assay, MES-SA/Dx5
Format: cell-based, human
experimental-conditions: in the absence of TQ

Please review the following examples before continuing.
{"columns": ["molecule", "result-value"],
 "data": [
  ["Cc1cc(NC(=S)N/N=C/c2ncccc2CN2CCOCC2)cc(C)c1O", 0.22],
  ["COc1cccc2c1C(=O)c1c(O)c3c(c(O)c1C2=O)C[C@@](O)(C(=O)CO)C[C@@H]3O[C@H]1C[C@H](N)[C@H](O)[C@H](C)O1 [Doxorubicin, reference compound]", 0.02]
]}

# evaluate next
// query Report SR, selectivity ratio IC50 (MES-SA)/IC50 (MES-SA/Dx5) for NC(=S)NN=Cc1ncccc1N [Triapine, reference compound]
// result 0.18

###

Recorded measurements of logK′5.9 (DMSO/H2O), one per entry
assay-notes: Conditional stability constants of the copper(II) complexes by EDTA displacement (UV–vis)
Format: physicochemical
experimental-conditions: EDTA displacement, UV–vis, pH 5.9, 30% (v/v) DMSO/H2O; 25 °C
Lab note: record the figure alone, no unit after it.

Example entries begin here.
{"columns": ["molecule", "result-value"],
 "data": [
  ["Cc1cc(NC(=NN=Cc2ccc(CN3CCOCC3)cn2)[S][Cu][Cl])cc(C)c1O [complex 5, [Cu(HL^5)Cl]·2.5H2O]", 9.99],
  ["Cc1cc(NC(=NN=Cc2ncccc2CN2CCOCC2)[S][Cu][Cl])cc(C)c1O [complex 3, [Cu(HL^3)Cl]·H2O]", 10.33],
  ["Cc1cc(NC(=NN=Cc2cccc(CN3CCOCC3)n2)[S][Cu][Cl])cc(C)c1O [complex 6, [Cu(HL^6)Cl]·H2O]", 10.09]
]}

// query Look up and report measured logK′5.9 (DMSO/H2O) for this entry: Cc1cc(NC(=NN=Cc2cc(CN3CCOCC3)ccn2)[S][Cu][Cl])cc(C)c1O [complex 4, [Cu(HL^4)Cl]·1.5H2O]
// result 10.07

###

Tested on: MES-SA/Dx5 cells
assay-notes: Fluorescent protein-based cytotoxicity assay, MES-SA/Dx5
Type: cell-based, human
experimental-conditions: in the absence of TQ
recorded-endpoint: SR, selectivity ratio IC50 (MES-SA)/IC50 (MES-SA/Dx5)
Note: the reply should be a number with no unit written.

// query # return recorded SR, selectivity ratio IC50 (MES-SA)/IC50 (MES-SA/Dx5) for input Cc1cc(NC(=NN=Cc2cc(CN3CCOCC3)ccn2)[S][Cu][Cl])cc(C)c1O [complex 4, [Cu(HL^4)Cl]·1.5H2O]
// result 3.33

// query Annotate the compound Cc1cc(NC(=NN=Cc2cccc(CN3CCOCC3)n2)[S][Cu][Cl])cc(C)c1O [complex 6, [Cu(HL^6)Cl]·H2O] with its measured SR, selectivity ratio IC50 (MES-SA)/IC50 (MES-SA/Dx5).
// result 0.21

// query Identify the reported SR, selectivity ratio IC50 (MES-SA)/IC50 (MES-SA/Dx5) for the following entry. Cc1cc(NC(=NN=Cc2ccc(CN3CCOCC3)cn2)[S][Cu][Cl])cc(C)c1O [complex 5, [Cu(HL^5)Cl]·2.5H2O]
// result 3.81

// query Please look at this compound and report its SR, selectivity ratio IC50 (MES-SA)/IC50 (MES-SA/Dx5): Cc1cc(NC(=NN=Cc2ncccc2CN2CCOCC2)[S][Cu][Cl])cc(C)c1O [complex 3, [Cu(HL^3)Cl]·H2O]
// result 2.76

###

assay-notes: Proton dissociation constants (pKa) of the proligands by pH-potentiometry, UV–vis and 1H NMR titrations
Format: physicochemical
experimental-conditions: 30% (v/v) DMSO/H2O solvent mixture, pH–potentiometry, I = 0.1 M (KCl), t = 25 °C, read-out: pKa1
Description: The path length was 1 cm. ^1H NMR spectroscopic studies were carried out on a Bruker Avance III HD instrument. All spectra were recorded with the WATERGATE water suppression pulse scheme using sodium trimethylsilylpropanesulfonate as internal standard.
recorded-endpoint: pKa

// query Retrieve pKa measured for Cc1cc(NC(=S)N/N=C/c2ncccc2CN2CCOCC2)cc(C)c1O and print it.
// result < 2

###

assay-notes: Conditional stability constants of the copper(II) complexes by EDTA displacement (UV–vis)
Format: physicochemical
experimental-conditions: calcd. at pH 5.9, cL = cCu(II) = 1 μM
recorded-endpoint: pCu5.9 (=–log[Cu(II)])
Answer field: number only, no words.

# example entries with known answers
{"columns": ["compound", "pCu5.9 (=–log[Cu(II)])"],
 "data": [
  ["Cc1cc(NC(=NN=Cc2ccc(CN3CCOCC3)cn2)[S][Cu][Cl])cc(C)c1O [complex 5, [Cu(HL^5)Cl]·2.5H2O]", 8.02],
  ["Cc1cc(NC(=NN=Cc2ncccc2CN2CCOCC2)[S][Cu][Cl])cc(C)c1O [complex 3, [Cu(HL^3)Cl]·H2O]", 8.20],
  ["Cc1cc(NC(=NN=Cc2cccc(CN3CCOCC3)n2)[S][Cu][Cl])cc(C)c1O [complex 6, [Cu(HL^6)Cl]·H2O]", 8.07]
]}

Below: the item to evaluate.
// query Entry Cc1cc(NC(=NN=Cc2cc(CN3CCOCC3)ccn2)[S][Cu][Cl])cc(C)c1O [complex 4, [Cu(HL^4)Cl]·1.5H2O] needs its pCu5.9 (=–log[Cu(II)]) filled in; supply it.
// result 8.06

###

assay-notes: Cyclic voltammetry of copper(II) complexes in DMSO/n-Bu4NPF6
Format: physicochemical
experimental-conditions: second anodic peak potential vs Fc+/Fc, 100 mV s^–1
Here, each record is paired with measured Epa^2 data.

{"columns": ["compound", "recorded-endpoint", "result-value"],
 "data": [
  ["Cc1cc(NC(=NN=Cc2ccc(CN3CCOCC3)cn2)[S][Cu][Cl])cc(C)c1O [complex 5, [Cu(HL^5)Cl]·2.5H2O]", "Epa^2", "+0.69 V"],
  ["Cc1cc(NC(=NN=Cc2ncccc2CN2CCOCC2)[S][Cu][Cl])cc(C)c1O [complex 3, [Cu(HL^3)Cl]·H2O]", "Epa^2", "+0.79 V"],
  ["Cc1cc(NC(=NN=Cc2cccc(CN3CCOCC3)n2)[S][Cu][Cl])cc(C)c1O [complex 6, [Cu(HL^6)Cl]·H2O]", "Epa^2", "+0.66 V"]
]}

Consider the additional compound presented here.
// query Provide Epa^2 value for the following compound: Cc1cc(NC(=NN=Cc2cc(CN3CCOCC3)ccn2)[S][Cu][Cl])cc(C)c1O [complex 4, [Cu(HL^4)Cl]·1.5H2O]
// result +0.77 V
